Test System: Programmed Death 1 (PD-1) (UniProt Q15116 25-288, limits assumed)
Sequence (Q15116 25-288 limits assumed): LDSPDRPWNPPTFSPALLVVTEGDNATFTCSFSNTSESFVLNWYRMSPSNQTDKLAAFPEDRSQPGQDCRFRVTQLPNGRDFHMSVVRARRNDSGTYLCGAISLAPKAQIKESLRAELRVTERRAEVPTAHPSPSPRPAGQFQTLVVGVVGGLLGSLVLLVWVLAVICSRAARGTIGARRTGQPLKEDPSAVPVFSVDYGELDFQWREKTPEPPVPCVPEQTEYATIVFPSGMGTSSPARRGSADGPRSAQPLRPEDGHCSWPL
Test Summary: rank of the clone in the competition binding assay with labeled murine mAb BAP049, 1st experiment; higher number = worse
Endpoint Label: Competition Binding, 1st exp. (rank)

[[record]]
binder = "BAP049-hum02 (antibody, human IgG4 S228P, kappa, V domains shown, also called Clone No. 2) VH: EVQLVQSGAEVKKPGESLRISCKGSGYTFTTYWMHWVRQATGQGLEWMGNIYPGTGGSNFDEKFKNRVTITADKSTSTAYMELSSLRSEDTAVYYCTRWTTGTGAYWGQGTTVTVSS VL: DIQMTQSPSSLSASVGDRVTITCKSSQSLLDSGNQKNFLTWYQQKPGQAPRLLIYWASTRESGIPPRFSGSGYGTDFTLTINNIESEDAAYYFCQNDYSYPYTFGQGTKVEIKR"
reported_value = 3

[[record]]
binder = "BAP049-hum12 (antibody, human IgG4 S228P, kappa, V domains shown, also called Clone No. 12) VH: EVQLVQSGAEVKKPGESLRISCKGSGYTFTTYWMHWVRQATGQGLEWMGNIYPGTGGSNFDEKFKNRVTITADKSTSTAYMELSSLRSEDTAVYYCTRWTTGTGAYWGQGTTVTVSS VL: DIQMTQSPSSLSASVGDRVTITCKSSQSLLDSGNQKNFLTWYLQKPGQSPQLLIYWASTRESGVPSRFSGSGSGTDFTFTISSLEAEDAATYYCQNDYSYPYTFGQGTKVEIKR"
reported_value = 8

[[record]]
binder = "BAP049-hum05 (antibody, human IgG4 S228P, kappa, V domains shown, also called humanized BAP049 clone hum05) VH: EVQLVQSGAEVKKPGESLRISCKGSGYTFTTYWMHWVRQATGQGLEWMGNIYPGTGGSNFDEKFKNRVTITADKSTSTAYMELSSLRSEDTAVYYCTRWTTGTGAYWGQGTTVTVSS VL: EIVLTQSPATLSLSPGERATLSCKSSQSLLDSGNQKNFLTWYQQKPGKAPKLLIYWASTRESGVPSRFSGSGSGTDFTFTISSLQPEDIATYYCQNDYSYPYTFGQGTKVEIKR"
reported_value = 5

[[record]]
binder = "BAP049-hum01 (antibody, human IgG4 S228P, kappa, V domains shown, also called humanized BAP049 clone hum01) VH: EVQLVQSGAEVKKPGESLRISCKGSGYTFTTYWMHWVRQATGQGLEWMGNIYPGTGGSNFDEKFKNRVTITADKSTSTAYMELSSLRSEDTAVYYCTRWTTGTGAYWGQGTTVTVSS VL: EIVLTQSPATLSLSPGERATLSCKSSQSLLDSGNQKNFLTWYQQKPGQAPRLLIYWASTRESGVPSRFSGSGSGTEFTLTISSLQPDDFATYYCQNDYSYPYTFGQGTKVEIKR"
reported_value = 7

